experiment: self-splicing fitness, log relative to wild type (ln ratio); higher = more splicing; Tetrahymena group I intron in knt gene, E. coli kanamycin selection, DiMSum; sequences stand for … in CUCUCU…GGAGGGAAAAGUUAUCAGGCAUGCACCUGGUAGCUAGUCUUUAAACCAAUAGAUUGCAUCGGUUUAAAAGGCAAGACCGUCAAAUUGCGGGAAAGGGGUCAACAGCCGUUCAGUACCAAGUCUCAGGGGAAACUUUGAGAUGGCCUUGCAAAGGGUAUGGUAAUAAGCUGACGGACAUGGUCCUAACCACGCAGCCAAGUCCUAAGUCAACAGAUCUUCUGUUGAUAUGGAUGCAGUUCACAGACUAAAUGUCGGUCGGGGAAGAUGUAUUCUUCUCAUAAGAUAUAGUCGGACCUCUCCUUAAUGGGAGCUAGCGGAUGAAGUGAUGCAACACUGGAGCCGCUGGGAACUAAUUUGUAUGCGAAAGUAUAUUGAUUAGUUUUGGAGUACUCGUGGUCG; conditions: 30 °C;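 further: selection with 25 µg/mL kanamycin versus none on LB agar overnight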
Measured self-splicing fitness (ln), listed per entry for reference.
Enter a number only.

Past entries and their recorded results:
{"sequence-string": "AGCGAGCAAUAUUACGUGUA", "self-splicing fitness (ln)": -2.83}
{"sequence-string": "CGUAAGCAAUAUUACGAAUU", "self-splicing fitness (ln)": -3.76}
{"sequence-string": "GGCAAGCAAUAUUACGGGAG", "self-splicing fitness (ln)": -2.47}
{"sequence-string": "UAUGAGCAAUAUUACGCAAG", "self-splicing fitness (ln)": -2.66}
{"sequence-string": "AGUUAGCAAUAUUACGAAUU", "self-splicing fitness (ln)": -1.62}

Fill in the blank: the reported self-splicing fitness (ln) of `UGGAAGCAAUAUUACGCGUU` is ____. -4.13

Fill in the blank: the reported self-splicing fitness (ln) of `UCUCAGCAAUAUUACGCCGU` is ____. -2.55

---

Measured self-splicing fitness (ln), listed per entry for reference.
assay: self-splicing fitness, log relative to wild type (ln ratio); higher = more splicing; Tetrahymena group I intron in knt gene, E. coli kanamycin selection, DiMSum; sequences stand for … in CUCUCU…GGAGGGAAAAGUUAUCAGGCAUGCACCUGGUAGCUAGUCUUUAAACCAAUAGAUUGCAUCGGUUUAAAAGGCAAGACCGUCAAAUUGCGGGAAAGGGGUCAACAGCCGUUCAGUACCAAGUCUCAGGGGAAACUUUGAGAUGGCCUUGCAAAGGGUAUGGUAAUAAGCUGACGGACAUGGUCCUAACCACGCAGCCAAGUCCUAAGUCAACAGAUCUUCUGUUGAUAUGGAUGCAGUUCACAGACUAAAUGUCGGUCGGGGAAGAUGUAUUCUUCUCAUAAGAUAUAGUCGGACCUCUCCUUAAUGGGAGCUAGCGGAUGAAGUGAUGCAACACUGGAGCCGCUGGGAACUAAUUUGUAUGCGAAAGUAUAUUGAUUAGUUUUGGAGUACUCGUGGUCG; settings: 37 °C
Enter a number only.

{"sequence-string": "CAUUAGCAAUAUUACGUGCU", "self-splicing fitness (ln)": -2.36}
{"sequence-string": "ACUGAGCAAUAUUACGUUUA", "self-splicing fitness (ln)": -3.08}
{"sequence-string": "CAUAAGCAAUAUUACGGCGG", "self-splicing fitness (ln)": -0.0169}
{"sequence-string": "CAAAAGCAAUAUUACGUUGA", "self-splicing fitness (ln)": -2.32}

Fill in the blank: the reported self-splicing fitness (ln) of `UACGAGCAAUAUUACGGCGG` is ____. -1.08

Fill in the blank: the reported self-splicing fitness (ln) of `UAACAGCAAUAUUACGAGAA` is ____. -2.07

Fill in the blank: the reported self-splicing fitness (ln) of `UCUUAGCAAUAUUACGCUCG` is ____. -1.43

Fill in the blank: the reported self-splicing fitness (ln) of `UGUUAGCAAUAUUACGGUGA` is ____. -0.192

Fill in the blank: the reported self-splicing fitness (ln) of `GUCUAGCAAUAUUACGCCGU` is ____. -0.0862

Fill in the blank: the reported self-splicing fitness (ln) of `CACGAGCAAUAUUACGUUGC` is ____. -2.14

Fill in the blank: the reported self-splicing fitness (ln) of `UGAAAGCAAUAUUACGCUAC` is ____. -1.75

Fill in the blank: the reported self-splicing fitness (ln) of `CCACAGCAAUAUUACGACCA` is ____. -1.28

Fill in the blank: the reported self-splicing fitness (ln) of `CUCGAGCAAUAUUACGAAAG` is ____. -1.58

Fill in the blank: the reported self-splicing fitness (ln) of `UGCGAGCAAUAUUACGAGCC` is ____. -1.67

Fill in the blank: the reported self-splicing fitness (ln) of `AGUCAGCAAUAUUACGAGGU` is ____. -2.62

Fill in the blank: the reported self-splicing fitness (ln) of `UAUAAGCAAUAUUACGUUUC` is ____. -2.43

Fill in the blank: the reported self-splicing fitness (ln) of `CAGCAGCAAUAUUACGACAG` is ____. 0.533

Fill in the blank: the reported self-splicing fitness (ln) of `UGGAAGCAAUAUUACGUGGG` is ____. -2.53

Fill in the blank: the reported self-splicing fitness (ln) of `CGGCAGCAAUAUUACGCGAA` is ____. -1.68

Fill in the blank: the reported self-splicing fitness (ln) of `UAGAAGCAAUAUUACGAGAA` is ____. -1.55

Fill in the blank: the reported self-splicing fitness (ln) of `GAUCAGCAAUAUUACGGUCA` is ____. -0.459

Fill in the blank: the reported self-splicing fitness (ln) of `AAAUAGCAAUAUUACGCUGA` is ____. -1.29

Fill in the blank: the reported self-splicing fitness (ln) of `GUCAAGCAAUAUUACGAGAA` is ____. -1.83

Fill in the blank: the reported self-splicing fitness (ln) of `GUACAGCAAUAUUACGACGA` is ____. -1.07

Fill in the blank: the reported self-splicing fitness (ln) of `UAUUAGCAAUAUUACGCAGC` is ____. -2.56

---

test: self-splicing fitness, log relative to wild type (ln ratio); higher = more splicing; Tetrahymena group I intron in knt gene, E. coli kanamycin selection, DiMSum; sequences stand for … in CUCUCU…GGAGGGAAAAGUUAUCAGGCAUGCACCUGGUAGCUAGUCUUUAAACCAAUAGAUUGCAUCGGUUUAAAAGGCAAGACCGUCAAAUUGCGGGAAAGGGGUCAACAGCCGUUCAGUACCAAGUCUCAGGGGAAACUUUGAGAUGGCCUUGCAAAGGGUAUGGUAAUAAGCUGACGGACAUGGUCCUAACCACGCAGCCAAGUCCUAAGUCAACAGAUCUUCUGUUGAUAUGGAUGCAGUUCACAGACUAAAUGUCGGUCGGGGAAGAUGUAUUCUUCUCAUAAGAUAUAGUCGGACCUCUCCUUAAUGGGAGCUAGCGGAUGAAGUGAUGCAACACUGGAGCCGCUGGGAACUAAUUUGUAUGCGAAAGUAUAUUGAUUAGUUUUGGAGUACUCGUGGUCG; conditions: 30 °C
measured-quantity: self-splicing fitness (ln)
Enter a number only.

Past entries and their recorded results:
{"sequence-string": "AGAUAGCAAUAUUACGGUCU", "self-splicing fitness (ln)": -2}
{"sequence-string": "UUUCAGCAAUAUUACGGGCG", "self-splicing fitness (ln)": -1.02}
{"sequence-string": "GUUAAGCAAUAUUACGAGGG", "self-splicing fitness (ln)": -3.99}
{"sequence-string": "GCUGAGCAAUAUUACGGGAG", "self-splicing fitness (ln)": -2.58}
{"sequence-string": "AAGAAGCAAUAUUACGCACU", "self-splicing fitness (ln)": -0.114}
{"sequence-string": "GUCAAGCAAUAUUACGUCUG", "self-splicing fitness (ln)": -3.64}
{"sequence-string": "CACGAGCAAUAUUACGGCUC", "self-splicing fitness (ln)": -2.71}
{"sequence-string": "AAGCAGCAAUAUUACGUUAC", "self-splicing fitness (ln)": -3.42}
{"sequence-string": "CCAAAGCAAUAUUACGGGCC", "self-splicing fitness (ln)": -2.51}
{"sequence-string": "UAGGAGCAAUAUUACGGAAU", "self-splicing fitness (ln)": -4.06}

Fill in the blank: the reported self-splicing fitness (ln) of `GACUAGCAAUAUUACGUAUG` is ____. -1.82

Fill in the blank: the reported self-splicing fitness (ln) of `GGGUAGCAAUAUUACGCCUG` is ____. -1.42

Fill in the blank: the reported self-splicing fitness (ln) of `GGCGAGCAAUAUUACGAGUC` is ____. -1.61

Fill in the blank: the reported self-splicing fitness (ln) of `UUGGAGCAAUAUUACGAUUU` is ____. -3.2

Fill in the blank: the reported self-splicing fitness (ln) of `AAUGAGCAAUAUUACGCGGU` is ____. -2.93

Fill in the blank: the reported self-splicing fitness (ln) of `GCCCAGCAAUAUUACGUCCC` is ____. -1.49
